For each entry below, report its shrunken log2 fold change value.
Tested on: Escherichia coli TOP10;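 note: peptides expressed intracellularly from a pBAD plasmid library in pooled LB shake-flask culture, induced with 0.3% L-arabinose, DNA abundance read by NGS, three biological replicates, DESeq2 with apeglm shrinkage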
Test: shrunken log2 fold change of peptide-encoding DNA abundance (4.5 h post-induction vs induction); higher = less antimicrobial activity (less host growth inhibition)
Details: time post-induction: 4.5 h; library: site-saturation at positions 5, 18, 19, 20
Kindly provide the number alone.

Q. Give measured shrunken log2 fold change for RRIRNRPPRLPRPRPRPGHNPRP (Escherichia coli TOP10).
A. -0.64

Q. Give measured shrunken log2 fold change for RRIRQRPPRLPRPRPRPKIMPRP (Escherichia coli TOP10).
A. -0.668

Q. Give measured shrunken log2 fold change for RRIRSRPPRLPRPRPRPNNYPRP (Escherichia coli TOP10).
A. -0.597

Q. Give measured shrunken log2 fold change for RRIRGRPPRLPRPRPRPESMPRP (Escherichia coli TOP10).
A. 1.19

Q. Give measured shrunken log2 fold change for RRIRKRPPRLPRPRPRPIRRPRP (Escherichia coli TOP10).
A. 0.0536

Q. Give measured shrunken log2 fold change for RRIRFRPPRLPRPRPRPSLCPRP (Escherichia coli TOP10).
A. -0.348

Q. Give measured shrunken log2 fold change for RRIRHRPPRLPRPRPRPQSTPRP (Escherichia coli TOP10).
A. -0.395

Q. Give measured shrunken log2 fold change for RRIRERPPRLPRPRPRPDKDPRP (Escherichia coli TOP10).
A. -0.433

Q. Give measured shrunken log2 fold change for RRIRNRPPRLPRPRPRPPKRPRP (Escherichia coli TOP10).
A. 0.497

Q. Give measured shrunken log2 fold change for RRIRQRPPRLPRPRPRPCYHPRP (Escherichia coli TOP10).
A. -0.947

Q. Give measured shrunken log2 fold change for RRIRERPPRLPRPRPRPKDDPRP (Escherichia coli TOP10).
A. 0.104

Q. Give measured shrunken log2 fold change for RRIRLRPPRLPRPRPRPYCHPRP (Escherichia coli TOP10).
A. -0.542

Q. Give measured shrunken log2 fold change for RRIRGRPPRLPRPRPRPDMWPRP (Escherichia coli TOP10).
A. 0.132

Q. Give measured shrunken log2 fold change for RRIRLRPPRLPRPRPRPEPFPRP (Escherichia coli TOP10).
A. -0.0343

Q. Give measured shrunken log2 fold change for RRIRSRPPRLPRPRPRPKGVPRP (Escherichia coli TOP10).
A. 0.0137

Q. Give measured shrunken log2 fold change for RRIRHRPPRLPRPRPRPVMNPRP (Escherichia coli TOP10).
A. -0.0175

Q. Give measured shrunken log2 fold change for RRIRYRPPRLPRPRPRPSWWPRP (Escherichia coli TOP10).
A. -0.511

Q. Give measured shrunken log2 fold change for RRIRVRPPRLPRPRPRPTQYPRP (Escherichia coli TOP10).
A. 0.166

Q. Give measured shrunken log2 fold change for RRIRPRPPRLPRPRPRPESAPRP (Escherichia coli TOP10).
A. 0.396

Q. Give measured shrunken log2 fold change for RRIRKRPPRLPRPRPRPVSLPRP (Escherichia coli TOP10).
A. 0.0505

Q. Give measured shrunken log2 fold change for RRIRNRPPRLPRPRPRPPRKPRP (Escherichia coli TOP10).
A. 0.523

Q. Give measured shrunken log2 fold change for RRIRSRPPRLPRPRPRPCVKPRP (Escherichia coli TOP10).
A. -0.414

Q. Give measured shrunken log2 fold change for RRIRTRPPRLPRPRPRPRPPPRP (Escherichia coli TOP10).
A. 0.745

Q. Give measured shrunken log2 fold change for RRIRMRPPRLPRPRPRPSHDPRP (Escherichia coli TOP10).
A. 0.0846

Q. Give measured shrunken log2 fold change for RRIRMRPPRLPRPRPRPLTSPRP (Escherichia coli TOP10).
A. 0.0851

Q. Give measured shrunken log2 fold change for RRIRGRPPRLPRPRPRPWYIPRP (Escherichia coli TOP10).
A. -0.291

Q. Give measured shrunken log2 fold change for RRIRQRPPRLPRPRPRPVDDPRP (Escherichia coli TOP10).
A. -0.0578

Q. Give measured shrunken log2 fold change for RRIRCRPPRLPRPRPRPHDTPRP (Escherichia coli TOP10).
A. -0.427

Q. Give measured shrunken log2 fold change for RRIRRRPPRLPRPRPRPFAMPRP (Escherichia coli TOP10).
A. 0.0854

Q. Give measured shrunken log2 fold change for RRIRQRPPRLPRPRPRPETMPRP (Escherichia coli TOP10).
A. 0.192

Q. Give measured shrunken log2 fold change for RRIRARPPRLPRPRPRPPKFPRP (Escherichia coli TOP10).
A. 0.121

Q. Give measured shrunken log2 fold change for RRIRWRPPRLPRPRPRPPCCPRP (Escherichia coli TOP10).
A. 0.198

Q. Give measured shrunken log2 fold change for RRIRPRPPRLPRPRPRPPNFPRP (Escherichia coli TOP10).
A. 0.0501

Q. Give measured shrunken log2 fold change for RRIRWRPPRLPRPRPRPPLGPRP (Escherichia coli TOP10).
A. 0.416

Q. Give measured shrunken log2 fold change for RRIRIRPPRLPRPRPRPYQRPRP (Escherichia coli TOP10).
A. -0.12

Q. Give measured shrunken log2 fold change for RRIRHRPPRLPRPRPRPTDCPRP (Escherichia coli TOP10).
A. 0.038

Q. Give measured shrunken log2 fold change for RRIRIRPPRLPRPRPRPHEWPRP (Escherichia coli TOP10).
A. 0.0272

Q. Give measured shrunken log2 fold change for RRIRWRPPRLPRPRPRPTYIPRP (Escherichia coli TOP10).
A. -0.428

Q. Give measured shrunken log2 fold change for RRIRDRPPRLPRPRPRPEIKPRP (Escherichia coli TOP10).
A. 1.54

Q. Give measured shrunken log2 fold change for RRIRFRPPRLPRPRPRPRHDPRP (Escherichia coli TOP10).
A. 0.0736

Q. Give measured shrunken log2 fold change for RRIRPRPPRLPRPRPRPNQIPRP (Escherichia coli TOP10).
A. 0.0623

Q. Give measured shrunken log2 fold change for RRIRLRPPRLPRPRPRPDSEPRP (Escherichia coli TOP10).
A. 0.482

Q. Give measured shrunken log2 fold change for RRIRARPPRLPRPRPRPPGWPRP (Escherichia coli TOP10).
A. 1.22

Q. Give measured shrunken log2 fold change for RRIRHRPPRLPRPRPRPWLMPRP (Escherichia coli TOP10).
A. -0.12

Q. Give measured shrunken log2 fold change for RRIRSRPPRLPRPRPRPGFMPRP (Escherichia coli TOP10).
A. -0.101

Q. Give measured shrunken log2 fold change for RRIRNRPPRLPRPRPRPGHGPRP (Escherichia coli TOP10).
A. -0.19

Q. Give measured shrunken log2 fold change for RRIRRRPPRLPRPRPRPQHHPRP (Escherichia coli TOP10).
A. -0.0809

Q. Give measured shrunken log2 fold change for RRIRHRPPRLPRPRPRPLFNPRP (Escherichia coli TOP10).
A. -0.58

Q. Give measured shrunken log2 fold change for RRIRQRPPRLPRPRPRPGGNPRP (Escherichia coli TOP10).
A. -0.0842

Q. Give measured shrunken log2 fold change for RRIRVRPPRLPRPRPRPGKTPRP (Escherichia coli TOP10).
A. 0.0999

Q. Give measured shrunken log2 fold change for RRIRPRPPRLPRPRPRPCQCPRP (Escherichia coli TOP10).
A. -0.0627

Q. Give measured shrunken log2 fold change for RRIRPRPPRLPRPRPRPKCLPRP (Escherichia coli TOP10).
A. -0.0739

Q. Give measured shrunken log2 fold change for RRIRRRPPRLPRPRPRPDEQPRP (Escherichia coli TOP10).
A. 0.237

Q. Give measured shrunken log2 fold change for RRIRYRPPRLPRPRPRPPPSPRP (Escherichia coli TOP10).
A. 0.936

Q. Give measured shrunken log2 fold change for RRIRTRPPRLPRPRPRPWFLPRP (Escherichia coli TOP10).
A. -0.401

Q. Give measured shrunken log2 fold change for RRIRKRPPRLPRPRPRPMYFPRP (Escherichia coli TOP10).
A. -0.0354

Q. Give measured shrunken log2 fold change for RRIRRRPPRLPRPRPRPNAEPRP (Escherichia coli TOP10).
A. 0.0193

Q. Give measured shrunken log2 fold change for RRIRFRPPRLPRPRPRPWFDPRP (Escherichia coli TOP10).
A. -0.101

Q. Give measured shrunken log2 fold change for RRIRGRPPRLPRPRPRPTCLPRP (Escherichia coli TOP10).
A. 0.576
